Recorded values, source patent US6727250B2.

biological target: telomerase in nuclear extracts from HeLa cells (Homo sapiens, UniProt O14746); construct: The activity of telomerase in nuclear extracts from HeLa cells; endogenous in cells; assay: Telomerase test: activity of telomerase in nuclear extracts from HeLa cells (method of Morin); settings: concentration of inhibitor which inhibits the telomerase activity by 50%; HeLa nuclear extract, 120 minutes at 30° C., Phospho-Imager quantification
Sequence (O14746 whole entry): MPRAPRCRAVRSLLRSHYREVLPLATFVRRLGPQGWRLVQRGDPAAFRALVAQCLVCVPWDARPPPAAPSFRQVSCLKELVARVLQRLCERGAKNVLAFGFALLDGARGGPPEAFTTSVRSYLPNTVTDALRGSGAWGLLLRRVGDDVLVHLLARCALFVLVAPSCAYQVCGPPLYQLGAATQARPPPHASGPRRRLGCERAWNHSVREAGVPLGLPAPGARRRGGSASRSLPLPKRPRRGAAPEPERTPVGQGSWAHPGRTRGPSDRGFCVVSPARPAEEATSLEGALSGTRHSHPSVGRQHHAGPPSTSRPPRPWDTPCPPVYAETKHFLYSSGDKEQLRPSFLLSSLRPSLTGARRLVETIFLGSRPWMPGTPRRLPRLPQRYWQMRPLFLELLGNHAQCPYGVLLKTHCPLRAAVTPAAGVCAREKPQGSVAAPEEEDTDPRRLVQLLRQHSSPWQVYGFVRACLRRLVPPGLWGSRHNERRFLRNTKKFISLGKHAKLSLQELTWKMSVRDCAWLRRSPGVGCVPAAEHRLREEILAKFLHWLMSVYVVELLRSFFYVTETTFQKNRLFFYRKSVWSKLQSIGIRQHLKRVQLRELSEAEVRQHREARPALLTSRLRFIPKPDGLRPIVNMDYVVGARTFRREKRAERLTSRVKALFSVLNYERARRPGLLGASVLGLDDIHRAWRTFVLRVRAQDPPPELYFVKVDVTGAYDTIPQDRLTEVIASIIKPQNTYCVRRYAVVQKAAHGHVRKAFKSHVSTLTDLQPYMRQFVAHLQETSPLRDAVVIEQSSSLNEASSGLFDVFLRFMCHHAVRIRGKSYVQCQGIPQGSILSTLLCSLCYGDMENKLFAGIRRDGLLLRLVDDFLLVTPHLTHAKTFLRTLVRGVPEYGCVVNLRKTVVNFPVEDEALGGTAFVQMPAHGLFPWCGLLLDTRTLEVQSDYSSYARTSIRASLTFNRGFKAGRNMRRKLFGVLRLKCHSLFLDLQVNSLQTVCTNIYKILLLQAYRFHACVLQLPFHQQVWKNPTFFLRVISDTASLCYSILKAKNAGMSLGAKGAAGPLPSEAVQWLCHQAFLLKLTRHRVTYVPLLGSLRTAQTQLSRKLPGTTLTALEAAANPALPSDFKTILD
Sequence (O60832 whole entry partner): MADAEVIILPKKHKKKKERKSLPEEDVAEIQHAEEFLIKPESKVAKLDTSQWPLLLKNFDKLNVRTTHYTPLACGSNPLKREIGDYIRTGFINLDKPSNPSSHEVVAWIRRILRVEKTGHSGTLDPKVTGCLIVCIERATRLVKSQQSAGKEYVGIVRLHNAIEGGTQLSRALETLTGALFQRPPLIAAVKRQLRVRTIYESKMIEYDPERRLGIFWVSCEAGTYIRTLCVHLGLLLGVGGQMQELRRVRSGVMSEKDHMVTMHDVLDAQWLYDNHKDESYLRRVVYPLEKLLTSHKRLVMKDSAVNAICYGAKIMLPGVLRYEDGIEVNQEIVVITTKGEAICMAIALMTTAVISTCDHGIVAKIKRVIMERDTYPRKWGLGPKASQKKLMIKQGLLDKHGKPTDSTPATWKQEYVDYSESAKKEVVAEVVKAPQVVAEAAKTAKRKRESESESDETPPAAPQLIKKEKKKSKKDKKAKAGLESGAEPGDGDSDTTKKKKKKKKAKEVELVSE
Sequence (Q9NPE3 whole entry partner): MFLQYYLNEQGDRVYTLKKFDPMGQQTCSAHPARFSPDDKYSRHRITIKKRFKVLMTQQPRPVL
Sequence (Q9NX24 whole entry partner): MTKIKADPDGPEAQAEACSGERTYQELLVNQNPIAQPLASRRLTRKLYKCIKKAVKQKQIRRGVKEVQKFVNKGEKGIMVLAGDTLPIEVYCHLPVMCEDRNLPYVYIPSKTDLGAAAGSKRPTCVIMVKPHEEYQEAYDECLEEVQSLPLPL
Sequence (Q9NY12 whole entry partner): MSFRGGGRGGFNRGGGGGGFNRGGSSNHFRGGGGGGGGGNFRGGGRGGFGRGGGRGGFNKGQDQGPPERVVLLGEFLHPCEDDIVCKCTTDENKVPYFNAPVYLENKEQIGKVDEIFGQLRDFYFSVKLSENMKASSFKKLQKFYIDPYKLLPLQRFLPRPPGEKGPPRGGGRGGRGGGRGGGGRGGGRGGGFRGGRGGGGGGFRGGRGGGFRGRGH
Sequence (Q9BUR4 whole entry partner): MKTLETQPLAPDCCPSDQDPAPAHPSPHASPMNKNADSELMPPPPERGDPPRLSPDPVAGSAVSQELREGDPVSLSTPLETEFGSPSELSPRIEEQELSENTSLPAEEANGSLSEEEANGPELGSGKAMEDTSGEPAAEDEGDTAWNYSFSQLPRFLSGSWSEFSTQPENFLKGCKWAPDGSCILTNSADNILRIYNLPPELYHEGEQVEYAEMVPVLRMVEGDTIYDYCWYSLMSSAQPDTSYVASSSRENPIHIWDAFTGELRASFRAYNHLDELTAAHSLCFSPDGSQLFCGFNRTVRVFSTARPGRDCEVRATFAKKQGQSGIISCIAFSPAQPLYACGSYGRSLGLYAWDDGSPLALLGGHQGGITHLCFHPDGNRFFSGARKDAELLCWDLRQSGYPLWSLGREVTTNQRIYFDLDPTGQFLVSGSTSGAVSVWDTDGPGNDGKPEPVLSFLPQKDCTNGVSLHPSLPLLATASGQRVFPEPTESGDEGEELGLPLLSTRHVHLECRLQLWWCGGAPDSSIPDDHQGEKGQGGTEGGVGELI
measurement.type: log10 of IC50 (log10 of the value in nM)
Would you kindly interpret these values as log10 of IC50 expressed in nM?

Kindly note the recorded log10 of IC50 for COc1cc(C(=O)O)c(NC(=O)/C=C(\C)c2ccc(Cl)c(Cl)c2)cc1C , which is 3.00

Value of measured log10 of IC50 for the entry C/C(=C\C(=O)Nc1ccccc1C(=O)O)c1ccc(Cl)c(Cl)c1 : 3.70

Item: C/C(=C\C(=O)Nc1cc(Cl)ccc1C(=O)O)c1ccc2ccccc2c1 | log10 of IC50: 2.74

Lab note: measured log10 of IC50 of COc1cc(NC(=O)/C=C(\C)c2ccc3ccccc3c2)c(C(=O)O)cc1OC was 1.54

response.value for C/C(=C\C(=O)Nc1ccccc1C(=O)O)c1ccc2ccccc2c1 (field: log10 of IC50) = 1.60

For C/C(=C\C(=O)Nc1ccc(F)cc1C(=O)O)c1ccc2ccccc2c1 the compound record lists log10 of IC50 as 2.00
